- TESTED_SYSTEM: sodium-proton exchanger of subtype 3 (NHE3) (Homo sapiens)
- Construct: expressed in transfected cells
- ASSAY_PROTOCOL: Recovery of intracellular pH (pHi) after acidification in LAP1 cells stably expressing NHE3 (BCECF fluorescence, FLIPR)
- Format: cell-based
- EXPERIMENTAL_SETUP: LAP1 cells stably expressing NHE3; pH recovery after acidification; range 1 is % inhibition at 10 μM; read-out: Activity range (inhibitory effect on NHE3)
pIC50: −log10 of the molar value.
ENDPOINT_NAME: pIC50

{"columns": ["COMPOUND", "ENDPOINT_NAME", "RESULT"],
 "data": [
  ["NS(=O)(=O)c1ccc(O[C@H]2c3ccccc3C[C@@H]2N2CCCC2)c(F)c1 (racemic)", "pIC50", "> 6.00"],
  ["O=C1CNC(=O)N1c1ccc(F)c(O[C@H]2c3cc(Cl)cc(F)c3C[C@@H]2N2CC[C@@H](O)C2)c1", "pIC50", "5.00 to 6.00"],
  ["CC1(C)NC(=O)N(c2ccc(F)c(O[C@H]3c4cc(Cl)cc(Cl)c4C[C@@H]3N3CC[C@@H](O)C3)c2)C1=O", "pIC50", "5.00 to 6.00"]
]}

Give pIC50 for each of the items listed below.
1. CC(=O)Nc1cccc(O[C@@H]2c3ccccc3C[C@H]2N2CCC(N)C2)c1 (mixture of isomers)
2. CCCC1(N)CCCN([C@H]2Cc3c(Cl)cc(Cl)cc3[C@@H]2Oc2ccc(S(C)(=O)=O)cc2)C1 (stereo partly drawn) [Example 300]
3. Cc1nnc(C)n1-c1ccc(O[C@H]2c3ccccc3C[C@@H]2N2CCCC2)c(Cl)c1 (racemic) [Example 490]

1. 5.00 to 6.00
2. 5.00 to 6.00
3. > 6.00

----------
Kindly supply the reported IC50 values for the records listed here.
- TESTED_SYSTEM: sodium-proton exchanger of subtype 3 (NHE3) (Homo sapiens, UniProt P48764)
- Construct: expressed in transfected cells
- Sequence (P48764 26-834, species assumed): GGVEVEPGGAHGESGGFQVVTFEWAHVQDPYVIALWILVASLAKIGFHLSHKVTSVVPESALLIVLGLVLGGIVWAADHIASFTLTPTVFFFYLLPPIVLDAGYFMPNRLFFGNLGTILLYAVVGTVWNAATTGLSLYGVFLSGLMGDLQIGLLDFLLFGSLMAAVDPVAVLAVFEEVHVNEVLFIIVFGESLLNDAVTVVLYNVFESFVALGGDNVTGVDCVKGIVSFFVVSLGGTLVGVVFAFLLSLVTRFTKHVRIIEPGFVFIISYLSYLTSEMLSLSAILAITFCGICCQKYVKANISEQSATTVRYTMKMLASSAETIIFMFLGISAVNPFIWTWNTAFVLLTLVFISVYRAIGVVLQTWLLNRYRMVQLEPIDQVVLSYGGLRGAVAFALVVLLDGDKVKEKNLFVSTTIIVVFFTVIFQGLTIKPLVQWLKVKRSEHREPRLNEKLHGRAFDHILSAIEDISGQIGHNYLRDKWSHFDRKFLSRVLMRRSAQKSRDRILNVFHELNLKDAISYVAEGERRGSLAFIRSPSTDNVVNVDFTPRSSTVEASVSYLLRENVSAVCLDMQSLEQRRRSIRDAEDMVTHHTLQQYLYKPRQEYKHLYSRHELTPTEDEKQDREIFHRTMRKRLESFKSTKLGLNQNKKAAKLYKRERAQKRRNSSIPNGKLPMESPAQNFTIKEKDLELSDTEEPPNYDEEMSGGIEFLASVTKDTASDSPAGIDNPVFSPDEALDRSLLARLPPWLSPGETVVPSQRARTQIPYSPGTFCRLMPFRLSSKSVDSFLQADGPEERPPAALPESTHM
- ASSAY_PROTOCOL: Recovery of intracellular pH (pHi) after acidification in LAP1 cells stably expressing NHE3 (BCECF fluorescence, FLIPR)
- Type: cell-based
- EXPERIMENTAL_SETUP: LAP1 cells stably expressing NHE3; pH recovery after acidification; range 1 is % inhibition at 10 μM; read-out: Activity range (inhibitory effect on NHE3)

The following molecules have reported results that may help.
{"columns": ["MOLECULE", "TESTED_SYSTEM", "IC50"],
 "data": [
  ["Cc1nnc(C)n1-c1ccc(O[C@H]2c3cc(Cl)ccc3C[C@@H]2N2CC[C@@H](F)C2)c(F)c1", "sodium-proton exchanger of subtype 3 (NHE3) (Homo sapiens, UniProt P48764)", "< 1000 nM"],
  ["CC(=O)Nc1cccc(OC2c3ccccc3CC2N2CCCC2)c1 (racemic)", "sodium-proton exchanger of subtype 3 (NHE3) (Homo sapiens, UniProt P48764)", "< 1000 nM"],
  ["Cc1nnc(C)n1-c1ccc(O[C@H]2c3cc(Cl)ccc3C[C@@H]2N2CC[C@@H](O)C2)c(Cl)c1", "sodium-proton exchanger of subtype 3 (NHE3) (Homo sapiens, UniProt P48764)", "< 1000 nM"],
  ["NCC1CCN([C@@H]2Cc3ccccc3[C@H]2Oc2ccnc3ccccc23)CC1 (racemic)", "sodium-proton exchanger of subtype 3 (NHE3) (Homo sapiens, UniProt P48764)", "1000 to 10000 nM"],
  ["NC1CCN([C@@H]2Cc3ccccc3[C@H]2Oc2ccnc3ccccc23)C1 (mixture of isomers)", "sodium-proton exchanger of subtype 3 (NHE3) (Homo sapiens, UniProt P48764)", "1000 to 10000 nM"],
  ["NCC1CCN([C@@H]2Cc3ccccc3[C@H]2Oc2ccc(C(N)=O)cc2)CC1 (racemic)", "sodium-proton exchanger of subtype 3 (NHE3) (Homo sapiens, UniProt P48764)", "1000 to 10000 nM"],
  ["N#Cc1ccc(O[C@H]2c3ccccc3CC[C@@H]2N2CCC[C@H](N)C2)c(F)c1 (racemic)", "sodium-proton exchanger of subtype 3 (NHE3) (Homo sapiens, UniProt P48764)", "< 1000 nM"],
  ["Cc1cc(O[C@H]2c3cc(Cl)cc(F)c3C[C@@H]2N2CCCC2)ccc1S(C)(=O)=O (racemic)", "sodium-proton exchanger of subtype 3 (NHE3) (Homo sapiens, UniProt P48764)", "1000 to 10000 nM"]
]}

Now take the following molecule into account.
Item "CN(C)CCN(C)[C@H]1Cc2c(Cl)cc(Cl)cc2[C@@H]1Oc1ccc(S(C)(=O)=O)cc1" has what recorded IC50? < 1000 nM

----------
- TESTED_SYSTEM: sodium-proton exchanger of subtype 3 (NHE3) (Homo sapiens, UniProt P48764)
- Construct: expressed in transfected cells
- ASSAY_PROTOCOL: Recovery of intracellular pH (pHi) after acidification in LAP1 cells stably expressing NHE3 (BCECF fluorescence, FLIPR)
- Assay type: cell-based
- EXPERIMENTAL_SETUP: LAP1 cells stably expressing NHE3; pH recovery after acidification; range 1 is % inhibition at 10 μM; read-out: Activity range (inhibitory effect on NHE3)
pIC50: −log10 of the molar value.
Kindly supply the reported pIC50 values for the records listed here.

{"columns": ["COMPOUND", "TESTED_SYSTEM", "pIC50"],
 "data": [
  ["NS(=O)(=O)c1ccc(O[C@H]2c3ccccc3C[C@@H]2N2CCCC(O)C2)c(Cl)c1Cl (mixture of isomers)", "sodium-proton exchanger of subtype 3 (NHE3) (Homo sapiens, UniProt P48764)", "5.00 to 6.00"]
]}

Give pIC50 for each of the items listed below.
1. NCC1CCN([C@@H]2Cc3ccccc3[C@H]2Oc2ccc3c(c2)OCO3)CC1 (racemic)
2. CCc1ccc(O[C@@H]2c3ccccc3C[C@H]2N2CCC(CN)CC2)c(C(C)(C)C)c1 (racemic)
3. Cc1nnc(C)n1-c1ccc(O[C@H]2c3cc(Cl)cc(Cl)c3C[C@@H]2N2CCS(=O)(=O)CC2)c(F)c1
4. N[C@@H]1CCCN([C@H]2CCc3ccccc3[C@@H]2Oc2ccc(Cl)cc2-c2cc[nH]n2)C1 (racemic)
5. NC(=O)c1ccccc1O[C@H]1c2ccccc2CC[C@@H]1N1CCC[C@H](N)C1 (racemic)

1. 5.00 to 6.00
2. 5.00 to 6.00
3. > 6.00
4. > 6.00
5. > 6.00

Give pIC50 for each of the items listed below.
1. N[C@@H]1CCCN([C@@H]2Cc3ccccc3[C@H]2Oc2cccc(CN3CCCCC3)c2)C1 (racemic)
2. CS(=O)(=O)c1ccc(O[C@H]2c3cc(Cl)cc(Cl)c3C[C@@H]2N2CCCNCC2)c(Cl)c1
3. N[C@@H]1CCCN([C@@H]2Cc3ccccc3[C@H]2Oc2ccc(Cl)nc2)C1 (racemic)
4. NC(=O)c1ccc(O[C@@H]2c3ccccc3C[C@H]2N2CCC[C@H](N)C2)cc1 (racemic)
5. NCC1CCN([C@@H]2Cc3ccccc3[C@H]2Oc2ccc3c(c2)OCO3)C1 (mixture of isomers)
6. N#Cc1ccc(O[C@H]2c3ccccc3CC[C@@H]2N2CCC[C@@H](N)C2)c(Cl)c1 (racemic)

["5.00 to 6.00", "> 6.00", "5.00 to 6.00", "5.00 to 6.00", "5.00 to 6.00", "5.00 to 6.00"]

Item CC(=O)Nc1cccc(O[C@H]2c3cc(F)cc(Cl)c3C[C@@H]2N2CCC[C@@H](N)C2)c1 (racemic) has what recorded pIC50? > 6.00

Attribution: patent US8822449B2
